- Test system: LOX IMVI melanoma
- Measurement Notes: NCI tumour cell line growth inhibition, 48 h
Observation Type: TGI

Entry C[C@@H]1CC[C@H]2C(CN3CCN(CC4=C(C(F)(F)F)O[C@@H]5O[C@@]6(C)CC[C@H]7[C@H](C)CC[C@@H]4[C@@]57OO6)CC3)=C(C(F)(F)F)O[C@@H]3O[C@@]4(C)CC[C@@H]1[C@]32OO4 ; TGI = > 100 µM

The measured TGI associated with COCCn1cc(-c2csc(-c3c[nH]c4ccc(F)cc34)n2)c2cccnc21 reads > 100 µM

Looking up CCCS(=O)OC1C(C2COC(C)(C)O2)OC2OC(C)(C)OC21 (stereo not given) , I found its TGI recorded as 21.4 µM

The molecule listed as C[P+](C)(CC(F)(F)F)c1ccccc1 has a reported TGI of > 100 µM

Notebook: C[Si](C)(C)[C@@]1([Se]c2ccccc2)CC[C@@H]1C(=O)c1ccccc1 , TGI read as > 100 µM

Entry CC(=O)Nc1[nH]c(=O)[nH]c(=O)c1N(C(C)=O)C(C)=O — recorded TGI = > 100 µM

Data point: C=C1C[C@]23CC[C@@H]4C(CO)(CO)CC(=O)C[C@]4(C)[C@@H]2C(O)C[C@H]1C3 (stereo not given in full) ; TGI = > 100 µM

Note to self: TGI recorded for C/C(=N\n1c(N)c(C#N)c(-c2ccc(Cl)cc2)c(C#N)c1=O)c1cccnc1 was > 100 µM

Measured TGI of c1csc(-c2csc(-c3cccs3)c2)c1 : > 100 µM

The molecule listed as O=C(c1ccccc1)c1ccc2c(c1)N=C(c1ccc(Cl)c(Cl)c1)CC(c1ccc3ccccc3c1)N2 (stereo not given) shows TGI equal to > 100 µM

Please fill in: TGI reported for Cc1nc2ccccc2n1CCc1nc2ccccc2[nH]1 = > 100 µM

According to the records, this molecule C(=C1/CCCCC([n+]2ccccc2)=N1)/c1ccccc1 displays TGI of > 100 µM

The reported TGI of the molecule CC1Oc2c(c(O)cc3oc(=O)cc(-c4ccccc4)c23)C(=O)C1C (stereo not given) was > 100 µM

Form: molecule = CCOc1ccc(N2C(N)=NC(N)=NC2(C)C)cc1 ; TGI = > 100 µM

Record summary for O=c1oc2ccccc2cc1-c1nc2ccccc2s1 : reported TGI = 24.2 µM
